assay name: qHTS RealTime-Glo MT Cell Viability Assay in HEK293 cells - 8 hour (AID 1224887); also: nearly all actives have a fitted effect of over 50% in size
experimental context: RealTime-Glo luminescence; series mostly up to 76.8 µM
Results filed as inconclusive are left out. Calls of active or inactive are those of the source. Calls follow the shape of the dose curve; as a rule, active = well fitted cell-killing curve with a large enough effect in the repeat runs; inconclusive = weak or mixed curves, or effect the other way; inactive = flat fitted curve, though single readings scatter.
Labels: yes for active, no for inactive

compound: COc1cccc([C@H](O)C2CCN(CCc3ccc(F)cc3)CC2)c1OC
label: no
//
compound: CCCC(=O)OCc1ccccc1
label: no
//
compound: CCOc1ccccc1O
label: no
//
compound: CC(C)Cc1nccs1
label: no
//
compound: Nc1nc(Cl)nc2c1ncn2[C@H]1C[C@H](O)[C@@H](CO)O1
label: no
//
compound: Cc1cc(SC2=C(O)C[C@@](CCc3ccc(N)cc3)(C(C)C)OC2=O)c(C(C)(C)C)cc1CO
label: no
//
compound: CCCCCCCCOCCCN
label: no
//
compound: COC(=O)c1cc(Cl)ccc1[N+](=O)[O-]
label: no
//
compound: CCC(C(=O)O)c1ccc(N2Cc3ccccc3C2=O)cc1 (stereo not drawn)
label: no
//
compound: Clc1nc2ccccc2nc1Cl
label: no
//
compound: O=C(O)CNc1ccccc1
label: no
//
compound: O=[N+]([O-])c1cccc(I)c1
label: no
//
compound: CC(CN=Cc1ccccc1O)N=Cc1ccccc1O (stereo not drawn)
label: no
//
compound: CCCCCC1CCC(=O)O1 (stereo not drawn)
label: no
//
compound: FC1(F)C(F)(F)C(F)(F)C2(F)C(F)(C1(F)F)C(F)(F)C(F)(F)C1(F)C(F)(F)C(F)(F)C(F)(F)C(F)(F)C12F (stereo not drawn)
label: no
//
compound: O=C(Nc1ccccc1)c1cc([N+](=O)[O-])ccc1Cl
label: no
//
compound: CCC[Si](OC)(OC)OC
label: no
//
compound: COC(=O)/C=C/C(C)=C\C=C\C(C)=C\C=C\C=C(C)\C=C\C=C(C)\C=C\C(=O)O
label: no
//
compound: CCC(C)C1N=C(C)C(C)S1 (stereo not drawn)
label: no
//
compound: c1ccc(CN(Cc2ccccc2)Cc2ccccc2)cc1
label: no
//
compound: O=C1OC(=O)C2CC=CCC12 (stereo not drawn)
label: no
//
compound: O=[N+]([O-])c1ccccc1CCO
label: no
//
compound: C=CC(=O)NC(C)(C)C
label: no
//
compound: Cc1c(-c2cccnc2)c2ccccc2n1CCCCC(=O)O
label: no
//
compound: O=C(O)c1ccccc1[N+](=O)[O-]
label: no
//
compound: CC(O)CN (stereo not drawn)
label: no
//
compound: CC(=O)c1ccc(Cl)c(Cl)c1Cl
label: no
//
compound: COC(=O)Cc1cccc2ccccc12
label: no
//
compound: Cc1nc2sccn2c(=O)c1CCN1CCC(=C(c2ccc(F)cc2)c2ccc(F)cc2)CC1
label: yes
//
compound: CC(C)C/C=C(\C=O)c1ccccc1
label: no
//
compound: CC(=O)OCC(=O)[C@@]1(O)CC[C@H]2[C@@H]3CCC4=CC(=O)C=C[C@]4(C)[C@@]3(F)[C@@H](O)C[C@@]21C
label: no
//
compound: CC(C)(O)C(=O)O
label: no
//
compound: Cc1c(N=C=O)cccc1N=C=O
label: no

---

assay name: qHTS assay for identifying genotoxic compounds that show differential cytotoxicity against isogenic chicken DT40 cell lines with known DNA damage response pathways - Rad54/Ku70 mutant cell line (AID 743015); also: nearly all actives have a fitted effect of over 60% in size; also: potency is read from the fitted curve at half-maximal effect
experimental context: DT40 Rad54/Ku70 mutant viability, CellTiter-Glo, 40 h; series mostly up to 66.8 µM
Results filed as inconclusive are left out. The source made the active and inactive calls. Calls follow the shape of the dose curve; as a rule, active = well fitted cell-killing curve with a large enough effect in the repeat runs; inconclusive = weak or mixed curves; inactive = no such curve, though single readings can be large or run the other way.
measured metric: Potency

compound: O=C(Nc1ccc2c(c1)Cc1ccccc1-2)C(F)(F)F
value observed: 54.5 µM (active)
--
compound: Cc1cccc(C)c1NC(=O)CN1CCCC1
value observed: inactive
--
compound: Cc1ccc(NC(=O)c2ccc(CN3CCN(C)CC3)cc2)cc1Nc1nccc(-c2cccnc2)n1
value observed: 13.3 µM (active)
--
compound: CCCCCC1CCC(=O)O1 (configuration not stated)
value observed: inactive
--
compound: C=CC(C)(O)CC/C=C(/C)CCC=C(C)C (configuration not stated)
value observed: 61.1 µM (active)
--
compound: COc1cc(C)c(Cc2cnc(N)nc2N)cc1OC
value observed: 26.6 µM (active)
--
compound: SCCOCCOCCS
value observed: inactive
--
compound: CC(=O)S[C@H](C(=O)N[C@H]1Cc2ccccc2[C@H]2CCC[C@@H](C(=O)O)N2C1=O)C(C)C
value observed: inactive
--
compound: N#CCCCC(C#N)CCC#N (configuration not stated)
value observed: inactive
--
compound: CC(=O)CC/C=C(\C)CC/C=C(\C)CC/C=C(\C)CCC=C(C)C
value observed: inactive
--
compound: O=C1c2ccccc2C(=O)c2c1ccc(O)c2O
value observed: inactive
--
compound: [O-][n+]1ccc(Cl)cc1
value observed: inactive

Numbers sourced from PubChem BioAssay (Tox21).
